- Tested Target: 5-hydroxytryptamine receptor 3A (Homo sapiens)
- Sequence (P46098 whole entry): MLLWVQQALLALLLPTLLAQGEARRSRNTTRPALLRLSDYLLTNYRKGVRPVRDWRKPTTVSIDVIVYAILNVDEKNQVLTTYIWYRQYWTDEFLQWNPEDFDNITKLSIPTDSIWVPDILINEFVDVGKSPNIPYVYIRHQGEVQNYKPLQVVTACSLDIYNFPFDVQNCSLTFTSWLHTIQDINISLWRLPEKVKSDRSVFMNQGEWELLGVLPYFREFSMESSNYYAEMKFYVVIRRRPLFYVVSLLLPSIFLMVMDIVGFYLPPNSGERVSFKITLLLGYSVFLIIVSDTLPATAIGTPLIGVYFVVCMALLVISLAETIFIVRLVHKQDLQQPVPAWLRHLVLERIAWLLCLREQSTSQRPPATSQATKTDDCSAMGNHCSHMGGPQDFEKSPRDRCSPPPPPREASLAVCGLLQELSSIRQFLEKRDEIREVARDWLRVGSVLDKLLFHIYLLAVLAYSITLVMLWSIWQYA
- Procedure Text: Antagonist activity at 5-HT3 receptor (unknown origin)
Readout Kind: pIC50
Entry type: numeric. Quantity: pIC50, the -log10 of concentration in molar units.

Give the measured pIC50 of O=C(NC1CN2CCC1CC2)c1cc(Cl)cn2ccnc12 (stereo unspecified) .
7.76

====

logP: recorded values
- Procedure Text: Partition coefficient, log P of the compound
- Type: physicochemical
- Condition: octanol/water; read-out: logP
Enter a number only.

Known logP results, listed for orientation:
Smiles Record	logP
Cn1cnc2cnccc21	0.27
c1ccn2cncc2c1	0.41

Please give the measured logP for this compound: `c1cnc2[nH]cnc2c1`
0.41

Repeat with `Cn1cnc2cccnc21`
0.63

How about this compound: `c1cc2[nH]cnc2cn1`
0.04
